molecular target: T1, human dimeric EGFR (EGFR.mFc) (human); experiment: SPR 37C, mAb captured by anti-human Fc, EGFR.mFc analyte
T1 construct: Soluble dimeric EGFR construct
Measure: koff (s⁻¹)

{"columns": ["Binder", "Measure", "Endpoint Unit", "Numeric Result"],
 "data": [
  ["H1H086N (antibody, human IgG1, V domains shown, Tested in human IgG1 Fc format (H1H); also called H1M086N) VH: EVQLVESGGGLVQPGRSLRLSCAASGFTFDDYAMHWVRQAPGKGLEWVSGINWNSDKIAYADSVKGRFTISRDNAENSLFLQMNSLRPEDTALYYCVKRGDFWTDYYDYWGQGTLVTVSS VL: DIVMTQSPLSLPVTPGEPASISCRSSQSLLHSNGYNYLDWYLQKPGQSPHLLIYLVSTRASGVPDRFSGSGSGTDFTLKISRVEAEDVGVYYCMQALQTPWTFGQGTKVEIK", "koff", "s⁻¹", "1.13e-05"],
  ["H1H171P (antibody, human IgG1, V domains shown, Human IgG1 Fc (H1H)) VH: QVQLVESGGGVVQPGRSLRLSCAASGFTFSIYGMNWVRQGPGKGLDWVAVISDDGSNKDYVDSVRGRFTISRDNSKNTLYLQMNSLSAEDTAVYYCAKDRITGTHYYGMDVWGQGTTVTVSS VL: DIQMTQSPSSLSASVGDRITITCRASQDIANYLAWFQQKPGNAPTSLIYAASILQSGVPSKFSGSGSGTDFTLTITSLQPEDFASYYCQQYNRKPWTFGRGTKVEIK", "koff", "s⁻¹", "3.48e-05"],
  ["H1H141P (antibody, human IgG1, V domains shown, Human IgG1 Fc (H1H)) VH: QVQLQESGPGLVKPSQTLSLTCTVSGGSISSGDYYWNWIRQYPGKGLELIGYIYYSGITYYNPSLKSRLTISLDTSKNQFSLKLSSVTAADTAVYYCARDRVELRAFDIWGQGTMVTVSS VL: DIQMTQSPSSLSASVGDRVTITCQASQDISNYLNWYQQKPGKAPKLLINDASNLETGVPSRFSGSGSGTDFTFTISSLQPEDIATYYCQHYDSLPLTFGQGTRLEIK", "koff", "s⁻¹", "7.51e-06"],
  ["H1H147P (antibody, human IgG1, V domains shown, Human IgG1 Fc (H1H)) VH: EVQLVESGPGLVQPSQTLSLTCTVSGGSINSGDFYWSWIRQHPGKGLEWIGHIYYSGITYYSPSLKSRLTISVDTSKNQFSLKLSSVTAADTAVYYCARKRVTGEVDYWGQGTLVTVSS VL: DIQMTQSPSSLSASVGDRITITCQANQDINNYLNWYQQKPGKAPKLLISDASNLETGVPSRFSGSGSGTDFTFTISSLQPEDIATYYCQQYDNLPPTFGQGTRLEIKR", "koff", "s⁻¹", "1.26e-05"],
  ["H1H089N (antibody, human IgG1, V domains shown, Tested in human IgG1 Fc format (H1H); also called H1M089N) VH: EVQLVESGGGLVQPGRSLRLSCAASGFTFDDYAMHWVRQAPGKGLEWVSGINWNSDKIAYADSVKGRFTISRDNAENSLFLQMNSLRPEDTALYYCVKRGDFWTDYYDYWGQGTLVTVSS VL: DIVMTQSPLSLPVTPGEPASISCRSSQSLLHSNGHNYLDWYLQKPGQSPHLLIYLVSNRASGVPDRFSGSGSGTDFTLKISRVEAEDVGVYYCIQALQTPWTFGQGTKVEIK", "koff", "s⁻¹", "4.49e-05"]
]}
